- Tested on: UACC-62 melanoma
- method_description: NCI tumour cell line growth inhibition, 48 h
Below, each of the molecules is paired with its reported TGI value.
Value expressed in µM; do not type the unit.

COc1cc(/C=C2\CCc3cc(OC)c(OC)cc3C2=O)cc(OC)c1    18.4

Lab note: Cc1ccnc2c1c(=O)c1ccccc1n2C gave TGI of 41.4

Lab note: O=C(O)c1cc2c(cc1S(=O)(=O)O)C1C(C3C2C2(Cl)C(Cl)=C(Cl)C3(Cl)C2(Cl)Cl)C2(Cl)C(Cl)=C(Cl)C1(Cl)C2(Cl)Cl (stereo not given) gave TGI of 46.9

Lab note: O=C(/C(Cl)=C/c1ccccc1)c1ccccc1 gave TGI of 22.9

---

- Test system: A549 NSCLC
- method_description: NCI tumour cell line growth inhibition, 48 h
measure_name: TGI (µM)
Value expressed in µM; do not type the unit.

Before answering, review these 2 worked examples.
Cc1c(CN2CCC(Nc3ncnc4sc(CC(F)(F)F)cc34)CC2)ccc2c1cc(C#N)n2Cc1cn[nH]c1    23.3
CCN(CC)C(=S)N/N=C(\C)c1ccccc1O    43.4

Lab note: NC(=O)C1=C(c2ccccc2)c2ccccc2C1=O gave TGI of 37.6

---

- Tested on: OVCAR-3 ovarian
- method_description: NCI tumour cell line growth inhibition, 48 h; in the data active = GI50 below about 0.43 µM; inactive = the rest
Respond using exactly one of the listed classes: active, inactive

Past entries and their recorded results:
CCc1nc2ccc(Cc3ccc(C(=O)NO)cc3)cc2c(=O)n1CCc1ccccc1    inactive
CCC(C)/C=C(C)/C=C/C(=O)c1c(O)c(-c2ccc(O)cc2)c[nH]c1=O (configuration not stated)    inactive
COc1ccc(/C=C(\C#N)c2cc(OC)c3c(c2)OCO3)cc1    active
Cc1cc2c(C(N)=O)cccc2n1-c1nc2c(c(NCc3ccccc3)n1)CCCN2    active
CCCCC(=O)[O-].N.N.N.N.N.[Co+3].[O-][Cl+3]([O-])([O-])[O-]    inactive

INPUT: Dear all, I need the recorded test outcome for CCOC(=O)C(Cc1c[nH]c2cc([N+](=O)[O-])ccc12)(NC(C)=O)C(=O)OCC , thank you.
OUTPUT: inactive

INPUT: Dear all, I need the recorded test outcome for CN(/N=N/c1nc(OCc2ccccc2)c2[nH]cnc2n1)C(=O)N(C)/N=N/c1nc(OCc2ccccc2)c2[nH]cnc2n1 , thank you.
OUTPUT: inactive

INPUT: Dear all, I need the recorded test outcome for O=C(c1cc(-c2cc3c(cc2C(=O)N2Cc4ccccc4C[C@H]2CN2CCOCC2)OCO3)n2c1CCCC2)N(c1ccccc1)c1ccc(O)cc1 , thank you.
OUTPUT: inactive

INPUT: Dear all, I need the recorded test outcome for O=C(O)c1ccc(NS(=O)(=O)c2cccc3cccnc23)cc1 , thank you.
OUTPUT: inactive

INPUT: Dear all, I need the recorded test outcome for CCc1ccc(CCC(=O)Nc2ncc(Cc3ccccc3)s2)o1 , thank you.
OUTPUT: inactive

INPUT: Dear all, I need the recorded test outcome for Cc1nc(NC(=S)Nc2ccc(F)cc2)sc1C(=O)NNC(=S)Nc1ccc(F)cc1 , thank you.
OUTPUT: inactive

---

- Tested on: MOLT-4 leukemia
- method_description: NCI tumour cell line growth inhibition, 48 h
Below, each of the compounds is paired with its reported TGI value.
Value expressed in µM; do not type the unit.

Before answering, review these 2 worked examples.
COc1ccc(CN=C2Nc3ccncc3S(=O)(=O)N2c2ccccc2)cc1    44.7
CN(C)CCCNC(=O)CNC(=O)c1cc(NC(=O)c2cc(NC(=O)c3cc(NC(=O)CCNC(=O)c4cc(NC(=O)c5cc(NC(=O)c6nccn6C)cn5C)cn4C)cn3C)cn2C)cn1C    57

Lab note: O=Cc1[nH]c2ccccc2c1Br gave TGI of 68.6

Lab note: Cc1nn2c(/C=C3/C(=O)Nc4ccc(Cl)cc43)c(-c3ccccc3)nc2s1 gave TGI of 37.1

---

- Test system: SNB-75 CNS
- method_description: NCI tumour cell line growth inhibition, 48 h; in the data active = GI50 below about 0.43 µM; inactive = the rest
Respond using exactly one of the listed classes: class 1 (active), class 0 (inactive)

INPUT: Dear all, I need the recorded test outcome for CCc1ccc(CCC(=O)Nc2ncc(Cc3ccccc3)s2)o1 , thank you.
OUTPUT: class 0

INPUT: Dear all, I need the recorded test outcome for CCCCC(=O)[O-].N.N.N.N.N.[Co+3].[O-][Cl+3]([O-])([O-])[O-] , thank you.
OUTPUT: class 0

INPUT: Dear all, I need the recorded test outcome for Cc1ccc(NC2=C(Sc3ccc(Cl)cc3)C(=O)N(Cc3ccccc3)C2=O)cc1Cl , thank you.
OUTPUT: class 0

INPUT: Dear all, I need the recorded test outcome for CO/N=C1/NC(=O)/C(=C/c2ccc3ncccc3c2)S1 , thank you.
OUTPUT: class 0

INPUT: Dear all, I need the recorded test outcome for Cc1cc2c(C(N)=O)cccc2n1-c1nc2c(c(NCc3ccccc3)n1)CCCN2 , thank you.
OUTPUT: class 1

---

- Test system: NCI/ADR-RES ovarian
- method_description: NCI tumour cell line growth inhibition, 48 h; in the data active = GI50 below about 0.43 µM; inactive = the rest
Respond using exactly one of the listed classes: YES for active, NO for inactive

O=C(Nc1cc(Cl)ccc1O)c1cccc(NC2=C(Cl)C(=O)N(Cc3ccccc3)C2=O)c1    NO
CN(/N=N/c1nc(OCc2ccccc2)c2[nH]cnc2n1)C(=O)N(C)/N=N/c1nc(OCc2ccccc2)c2[nH]cnc2n1    NO
c1cncc(CNc2ccccc2-c2nnc(Nc3ccc4c(c3)OCCO4)o2)c1    YES

INPUT: Dear all, I need the recorded test outcome for Nc1ncc(-c2ccc(C(F)(F)F)cc2)c(NC2CCCCCC2)n1 , thank you.
OUTPUT: NO

INPUT: Dear all, I need the recorded test outcome for O=C(O)c1ccc(NS(=O)(=O)c2cccc3cccnc23)cc1 , thank you.
OUTPUT: NO

---

- System: KM12 colon
- method_description: NCI tumour cell line growth inhibition, 48 h
measure_name: GI50

Before answering, review these 5 worked examples.
COc1ccc(C2=C(c3cn(C)c4ccccc34)C(=O)NC2=O)cc1OC    6.34 µM
Cc1nn2c(/C=C3/C(=O)Nc4ccc(Cl)cc43)c(-c3ccccc3)nc2s1    2.11 µM
N#CSCC1CC(O)(c2ccccc2)C(c2ccccc2)C(c2ccc(F)cc2)O1 (stereo not given)    2.32 µM
CN(/N=N/c1nc(OCc2ccccc2)c2[nH]cnc2n1)C(=O)N(C)/N=N/c1nc(OCc2ccccc2)c2[nH]cnc2n1    84.2 µM
Cn1c2ccccc2c2nnc(N/N=C/c3ccccn3)nc21    0.535 µM

Lab note: O=[N+]([O-])c1cc(Br)cc2c1[nH]c1ccc(Br)cc12 gave GI50 of 13.3 µM

Lab note: N#CC(C#N)=CN1CCN(C(=O)c2ccccc2)C1=S gave GI50 of 32.3 µM

Lab note: CN(C)CC#Cc1cccc(C(=O)c2cnn(-c3ccc(F)cc3)c2N)c1 gave GI50 of > 25 µM

Lab note: CCCCC(=O)[O-].N.N.N.N.N.[Co+3].[O-][Cl+3]([O-])([O-])[O-] gave GI50 of > 100 µM

Lab note: Cc1ccc(NC2=C(Sc3ccc(Cl)cc3)C(=O)N(Cc3ccccc3)C2=O)cc1Cl gave GI50 of 31.1 µM

---

- Tested on: U251 CNS
- method_description: NCI tumour cell line growth inhibition, 48 h
measure_name: TGI

O=[N+]([O-])/C(C(Cl)=C(Cl)Cl)=C(/Sc1ccccc1)N1CCOCC1    23.5 µM
O=C(Nc1ccc(Nc2ccncc2)cc1)c1ccc(Nc2ccnc3ccc([N+](=O)[O-])cc23)cc1    > 100 µM
c1cncc(CNc2ccccc2-c2nnc(Nc3ccc4c(c3)OCCO4)o2)c1    > 100 µM
COc1cc(-c2cc(-c3nc4ccccc4[nH]3)[nH]n2)cc(OC)c1OC    32.6 µM

// below: TGI requested for another molecule
Lab note: Cn1c2ccccc2c2nnc(N/N=C/c3ccccn3)nc21 gave TGI of 14 µM

---

- Tested on: COLO 205 colon
- method_description: NCI tumour cell line growth inhibition, 48 h
measure_name: TGI

Before answering, review these 5 worked examples.
O=C(N/N=C/c1cc(Br)cc(Br)c1[O-])c1ccccc1O.O=C(N/N=C/c1cc(Br)cc(Br)c1[O-])c1ccccc1O.[Mn+2]    13.2 µM
C=C(Br)C(Cl)(CBr)CCC(Br)C(C)(C)Cl (stereo unspecified)    > 10 µM
Cc1cc(-c2nc3ccc(O)cc3s2)ccc1N    > 100 µM
CC(=S)NNC(=O)c1ccncc1    > 100 µM
O=C(NCCCCNCCCNC(=O)C(F)(F)F)C(F)(F)F    > 100 µM

// below: TGI requested for another compound
Lab note: O=C1NC2(O)c3ccccc3C(=O)C2(O)N1c1ccccc1 (stereo unspecified) gave TGI of > 100 µM

---

- System: RPMI-8226 leukemia
- method_description: NCI tumour cell line growth inhibition, 48 h
Below, each of the molecules is paired with its reported TGI value.
Value expressed in µM; do not type the unit.

Before answering, review these 4 worked examples.
CC1(C)N=C(N)N=C(N)N1c1cccc(CCCCc2ccc(S(=O)(=O)F)cc2Cl)c1    41.9
COc1cc(-c2cc(-c3nc4ccccc4[nH]3)[nH]n2)cc(OC)c1OC    4.16
COc1cccc2c1C(=O)c1ccc3cc(CO)cc(O)c3c1C2=O    5.1
O=C(c1ccc(NCN2C(=O)CCC2=O)cc1)c1ccc(NCN2C(=O)CCC2=O)cc1    43.9

For the molecule COc1cc2c(OC)c(c1)CCCC1=CC(=O)C=C(CCC2)C1=O , the measured TGI on RPMI-8226 leukemia was 25.9

For the molecule C#CC[C@H](c1nc2cc(Cl)ccc2c(=O)n1Nc1ccccc1)N(CCCN)C(=O)c1cccc(Cl)c1F , the measured TGI on RPMI-8226 leukemia was 1.16

For the molecule Cc1ccc(-c2c(C#N)c(S)n(NS(=O)(=O)c3ccccc3)c(=O)c2C#N)cc1 , the measured TGI on RPMI-8226 leukemia was 77.4

For the molecule C=C(CN1CCN(c2ccccc2F)CC1)c1ccc(C(=O)Nc2ccccc2N)cc1 , the measured TGI on RPMI-8226 leukemia was 3.78

For the molecule CC(=O)O/C(=C(/C#N)C(=O)O)C1C(C(=O)O)C(c2ccccc2[N+](=O)[O-])C=C(c2ccco2)N1c1ccncc1 (stereo not given) , the measured TGI on RPMI-8226 leukemia was 4.46

For the molecule C=CCC1(O)c2cccc(O)c2C(=O)c2cccc(O)c21 (stereo not given) , the measured TGI on RPMI-8226 leukemia was 76.1

This collection of values is drawn from PubChem BioAssay (NCI).
